- system-tested: GST-Nv-NF-kB (Cys allele) (Nematostella vectensis, UniProt E5G601 2-411)
- Sequence: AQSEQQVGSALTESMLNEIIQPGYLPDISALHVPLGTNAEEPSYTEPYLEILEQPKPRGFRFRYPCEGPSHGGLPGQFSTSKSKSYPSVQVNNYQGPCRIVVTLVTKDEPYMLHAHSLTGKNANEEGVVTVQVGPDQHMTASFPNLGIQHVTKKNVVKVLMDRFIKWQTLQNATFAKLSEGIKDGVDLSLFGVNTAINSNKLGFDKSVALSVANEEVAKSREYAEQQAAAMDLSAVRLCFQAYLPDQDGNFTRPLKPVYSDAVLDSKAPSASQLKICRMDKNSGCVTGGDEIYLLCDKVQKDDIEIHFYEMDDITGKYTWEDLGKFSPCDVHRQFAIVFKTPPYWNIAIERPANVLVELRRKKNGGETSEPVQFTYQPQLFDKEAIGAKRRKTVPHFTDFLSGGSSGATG
- protocol-text: protein-binding microarray (PBM); PBM: ~300 nM protein, 6 mM HEPES pH 7.8, 80 mM KCl, 0.5 mM EDTA, 0.5 mM EGTA, 6% glycerol, 35 ng/ul poly-dIdC, 1% milk, 1 h, room temperature; Ap Aiptasia and Nv Nematostella (sea anemones) / Co Capsaspora / Aq Amphimedon (sponge) / Dm Drosophila / Hu human; RHD is the Rel homology domain; high values mean tight binding
- cond: dsDNA, one strand shown
binding signal for assorted sequences
test-readout: binding signal (z-score)

1) CCGATTAACATCAGGGGAGCCCCTGATGTTAATCGGGTCTTGATTCGCTTGACGCTGCTG :: 6.25
2) CCGATTAACATCAGGGGACGTACTGATGTTAATCGGGTCTTGATTCGCTTGACGCTGCTG :: 3.48
3) CCGATTAACATCACGGAATTCCCTGATGTTAATCGGGTCTTGATTCGCTTGACGCTGCTG :: 6.74
4) CCGATTAACATCAGGGAAAACTATGATGTTAATCGGGTCTTGATTCGCTTGACGCTGCTG :: 5.55
5) CCGATTAACATCAAAATAGCCCCTGATGTTAATCGGGTCTTGATTCGCTTGACGCTGCTG :: 5.99
6) CCGATTAACATCAGGAACTCCCCTGATGTTAATCGGGTCTTGATTCGCTTGACGCTGCTG :: 7.4
7) CCGATTAACATCAGAAAATGCCCTGATGTTAATCGGGTCTTGATTCGCTTGACGCTGCTG :: 2.33
8) CCGATTAACATCAGATTTACCCCTGATGTTAATCGGGTCTTGATTCGCTTGACGCTGCTG :: 2.72
9) CCGATTAACATCAATAGTACCGATGATGTTAATCGGGTCTTGATTCGCTTGACGCTGCTG :: 1.03
10) CCGATTAACATCAAGGGAGTACCTGATGTTAATCGGGTCTTGATTCGCTTGACGCTGCTG :: 2.9
11) CCGATTAACATCAGGAAACCACCTGATGTTAATCGGGTCTTGATTCGCTTGACGCTGCTG :: 4.04
12) CCGATTAACATCAGGGAAAAACATGATGTTAATCGGGTCTTGATTCGCTTGACGCTGCTG :: 5.03
13) CCGATTAACATCAGGGGATTGGATGATGTTAATCGGGTCTTGATTCGCTTGACGCTGCTG :: 4.99
14) CCGATTAACATCAACTTGGGAAATGATGTTAATCGGGTCTTGATTCGCTTGACGCTGCTG :: 2.47
15) CCGATTAACATCAGAATTCTCCCTGATGTTAATCGGGTCTTGATTCGCTTGACGCTGCTG :: 4.1
16) CCGATTAACATCAGGGGGTATTATGATGTTAATCGGGTCTTGATTCGCTTGACGCTGCTG :: 5.39
17) CCGATTAACATCAGGGGTACCCCTGATGTTAATCGGGTCTTGATTCGCTTGACGCTGCTG :: 3.69
18) CCGATTAACATCAAGGGGTTCCCTGATGTTAATCGGGTCTTGATTCGCTTGACGCTGCTG :: 3.32
